tested on: S. cerevisiae GAL-BEM3 growth rescue, OD600, 48 h; assay: yeast growth restoration under BEM3 overexpression – S. cerevisiae, dry powder, plate reader, dose response (AID 602280)
The source made the active and inactive calls.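 How the source made its calls: active means compound whose fitted growth curve, scaled so untreated is 0 and control 100, reaches 40 within the tested doses; inconclusive means flat curve between 30 and 70 percent, or unreliable fit; inactive means the rest, including drops in growth.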
Write down the outcome that applies. Available outcomes: true (active), false (inactive)

Study these solved cases before continuing.
CC(C)c1ccc(C2NC(=O)c3ccccc3O2)cc1 (centres undefined) :: true
O=c1c2ccccc2[nH]c(=S)n1CCC1=CCCCC1 :: true
Cc1ccccc1CSc1nsc(N)n1 :: false

Now look at this one.
# outcome recorded in this test, key = Fc1cc(NCc2ccccc2)nc(NCc2ccccc2)n1 true
